# Fold IC50 increase relative to wild-type listing for each entry below
target: HIV-1 JR-CSF Env L416A (HIV-1 (isolate JR-CSF)) (UniProt P20871); assay: cell-based or functional assay
Please don't drop the unit; write it after the number.

Quick one: Fold IC50 increase relative to wild-type for PGT-126 (antibody, V domains shown) VH: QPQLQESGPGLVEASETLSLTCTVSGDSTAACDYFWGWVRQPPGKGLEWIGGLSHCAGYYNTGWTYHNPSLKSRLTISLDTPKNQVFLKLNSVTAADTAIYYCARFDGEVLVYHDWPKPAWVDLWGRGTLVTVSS VL: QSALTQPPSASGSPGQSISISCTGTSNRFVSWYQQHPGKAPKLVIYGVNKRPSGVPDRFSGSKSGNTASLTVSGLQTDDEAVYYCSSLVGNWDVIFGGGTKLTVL ?
0.8 fold

Quick one: Fold IC50 increase relative to wild-type for PGT-135 (antibody, V domains shown) VH: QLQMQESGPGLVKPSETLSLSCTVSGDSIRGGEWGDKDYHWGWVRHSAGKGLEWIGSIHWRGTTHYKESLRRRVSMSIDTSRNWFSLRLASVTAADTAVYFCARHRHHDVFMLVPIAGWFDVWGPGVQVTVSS VL: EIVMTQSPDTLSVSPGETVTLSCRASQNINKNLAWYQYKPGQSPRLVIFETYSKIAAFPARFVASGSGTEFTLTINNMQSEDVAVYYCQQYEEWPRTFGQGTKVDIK ?
1.2 fold

Quick one: Fold IC50 increase relative to wild-type for PGT-127 (antibody, V domains shown) VH: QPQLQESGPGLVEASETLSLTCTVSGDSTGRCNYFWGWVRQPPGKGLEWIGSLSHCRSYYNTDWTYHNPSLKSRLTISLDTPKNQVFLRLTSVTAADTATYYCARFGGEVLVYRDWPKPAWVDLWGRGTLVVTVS VL: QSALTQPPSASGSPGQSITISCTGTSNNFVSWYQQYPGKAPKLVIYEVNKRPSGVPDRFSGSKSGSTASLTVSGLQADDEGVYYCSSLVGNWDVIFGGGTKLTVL ?
1 fold

Quick one: Fold IC50 increase relative to wild-type for PGT-128 (antibody, V domains shown) VH: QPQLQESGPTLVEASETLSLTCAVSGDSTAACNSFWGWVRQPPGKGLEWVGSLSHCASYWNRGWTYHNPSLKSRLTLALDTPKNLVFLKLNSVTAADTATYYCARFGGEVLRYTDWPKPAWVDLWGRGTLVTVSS VL: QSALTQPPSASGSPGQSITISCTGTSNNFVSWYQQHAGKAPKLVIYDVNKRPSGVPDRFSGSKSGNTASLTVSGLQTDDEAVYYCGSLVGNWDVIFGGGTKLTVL ?
1.1 fold

Turning to the following binder.
Quick one: Fold IC50 increase relative to wild-type for PGT-125 (antibody, V domains shown) VH: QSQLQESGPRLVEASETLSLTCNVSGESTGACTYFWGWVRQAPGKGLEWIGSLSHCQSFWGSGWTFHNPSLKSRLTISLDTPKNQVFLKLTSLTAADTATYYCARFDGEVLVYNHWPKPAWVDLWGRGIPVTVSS VL: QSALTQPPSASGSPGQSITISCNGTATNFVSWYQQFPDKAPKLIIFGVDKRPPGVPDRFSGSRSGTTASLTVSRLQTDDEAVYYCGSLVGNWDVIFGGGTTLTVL ?
0.8 fold

Data provenance: patent US20200024330A1
